Tested on: Escherichia coli
Assay: Growth inhibition of Escherichia coli ATCC 25922 incubated for 18 hrs
Type: organism-based
# MIC per entry

The following compounds have reported results that may help.
> print(dat)
                                querysmiles  recordedmetric  endpointvalue
1  CC(C)CCOc1ccccc1-c1ccccc1OCc1cn([C@H](CCCCN)C(=O)NC2CCCCC2)nn1.Cl             MIC     > 32 µg/mL
2  CC(C)CCOc1ccc2ccccc2c1-c1c(OCc2cn([C@H](CCCCN)C(=O)N[C@H](CCCNC(=N)N)C(=O)NCc3ccccc3)nn2)ccc2ccccc12.Cl.Cl             MIC     > 32 µg/mL
3  CC(C)CCOc1ccccc1-c1ccccc1OCc1cn([C@H](CCCNC(=N)N)C(=O)NCCc2ccc(F)cc2)nn1.Cl             MIC     > 32 µg/mL
4  CC(C)CCOc1ccccc1-c1ccccc1OCc1cn([C@H](CCCNC(=N)N)C(=O)N[C@H](CCCCN)Cn2cc(CC3CCCCC3)nn2)nn1.Cl.Cl             MIC       16 µg/mL
5  CC(C)CCOc1ccccc1-c1ccccc1OCc1cn([C@H](CCCCN)C(=O)N[C@H](CCCNC(=N)N)Cn2cc(CCc3ccccc3)nn2)nn1.Cl.Cl             MIC        8 µg/mL

In: Item: `CC(C)CCOc1ccccc1-c1ccccc1OCc1cn([C@H](CCCNC(=N)N)C(=O)Nc2cccc(F)c2)nn1.Cl` Test system: Escherichia coli Read-out: MIC Value: ?
Out: > 32 µg/mL

In: Please do the same for `CCCN(CC1CC1)C(=O)[C@@H](CCCNC(=N)N)n1cc(COc2ccccc2-c2ccccc2OCCC(C)C)nn1.Cl` as well.
Out: > 32 µg/mL

In: Please do the same for `CC(C)CCOc1ccccc1-c1ccccc1OCc1cn([C@H](CCCCN)C(=O)NCc2ccc(C(F)(F)F)cc2)nn1.Cl` as well.
Out: > 32 µg/mL

In: Please do the same for `CC(C)CCOc1ccccc1-c1ccccc1OCc1cn([C@H](CCCCN)C(=O)N[C@H](CCCNC(=N)N)Cn2cc(Cc3ccccc3)nn2)nn1.Cl.Cl` as well.
Out: 8 µg/mL

In: Please do the same for `COc1cc(NC(=O)[C@@H](CCCNC(=N)N)n2cc(COc3ccccc3-c3ccccc3OCCC(C)C)nn2)cc(OC)c1.Cl` as well.
Out: > 32 µg/mL

In: Please do the same for `CC(C)CCOc1ccc2ccccc2c1-c1c(OCc2cn([C@H](CCCCN)C(=O)N[C@H](CCCNC(=N)N)Cn3cc(CCc4ccccc4)nn3)nn2)ccc2ccccc12.Cl.Cl` as well.
Out: > 32 µg/mL

----------
Tested on: Pseudomonas aeruginosa
Assay: Growth inhibition of Pseudomonas aeruginosa ATCC 27853 incubated for 18 hrs
Format: organism-based
recordedMetric: MIC (µg/mL)
Number only, in µg/mL; omit the unit.

The following molecules have reported results that may help.
> print(dat)
                                querysmiles  recordedmetric  unitsymbol  endpointvalue
1  CC(C)CCOc1ccccc1-c1ccccc1OCc1cn([C@H](CCCCN)C(=O)N[C@H](CCCNC(=N)N)Cn2cc(Cc3ccccc3)nn2)nn1.Cl.Cl             MIC       µg/mL             16
2  CC(C)CCOc1ccccc1-c1ccccc1OCc1cn([C@H](CCCCN)C(=O)NCc2ccccc2)nn1.Cl             MIC       µg/mL             32

Pending molecule:
In: Fill in the blank: the reported MIC of `CC(C)CCOc1ccc2ccccc2c1-c1c(OCc2cn([C@H](CCCNC(=N)N)C(=O)N[C@H](CCCCN)Cn3cc(CC4CCCCC4)nn3)nn2)ccc2ccccc12.Cl.Cl` is ____.
Out: 32

----------
Tested on: Acinetobacter baumannii
Assay: Growth inhibition of Acinetobacter baumannii ATCC 19606 incubated for 18 hrs without shaking by absorbance based monochromator plate reader analysis
Type: organism-based, ATCC 19606 = CIP 70.34 = JCM 6841
Settings: in vitro
# MIC per entry
Number only, in µg/mL; omit the unit.

> print(dat)
                                querysmiles  unitsymbol  endpointvalue
1  CC(C)CCOc1ccccc1-c1ccccc1OCc1cn([C@H](CCCCN)C(=O)NCc2ccccc2)nn1.Cl       µg/mL             32
2  CC(C)CCOc1ccc2ccccc2c1-c1c(OCc2cn([C@H](CCCCN)C(=O)N[C@H](CCCNC(=N)N)Cn3cc(CC4CCCCC4)nn3)nn2)ccc2ccccc12.Cl.Cl       µg/mL              8

In: Fill in the blank: the reported MIC of `CC(C)CCOc1ccccc1-c1ccccc1OCc1cn([C@H](CCCCN)C(=O)NCc2ccc(C(F)(F)F)cc2)nn1.Cl` is ____.
Out: 32

In: Please do the same for `CC(C)CCOc1ccccc1-c1ccccc1OCc1cn([C@H](CCCCN)C(=O)N[C@H](CCCNC(=N)N)Cn2cc(CCc3ccccc3)nn2)nn1.Cl.Cl` as well.
Out: 8

In: Please do the same for `CC(C)CCOc1ccc2ccccc2c1-c1c(OCc2cn([C@H](CCCNC(=N)N)C(=O)N[C@H](CCCCN)Cn3cc(CC4CCCCC4)nn3)nn2)ccc2ccccc12.Cl.Cl` as well.
Out: 32

----------
Test system: Streptococcus pneumoniae
Assay: Growth inhibition of Streptococcus pneumoniae ATCC 49619 incubated in MHB medium with lysed horse blood and 5% CO2 for 24 hrs
Format: organism-based
# MIC per entry
Number only, in µg/mL; omit the unit.

> print(dat)
                                querysmiles  endpointvalue
1  CC(C)CCOc1ccccc1-c1ccccc1OCc1cn([C@H](CCCNC(=N)N)C(=O)NCCc2ccccc2)nn1.Cl              4
2  CC(C)CCOc1ccc2ccccc2c1-c1c(OCc2cn([C@H](CCCCN)C(=O)N[C@H](CCCNC(=N)N)C(=O)NCCc3ccccc3)nn2)ccc2ccccc12.Cl.Cl              8
3  CC(C)CCOc1ccccc1-c1ccccc1OCc1cn([C@H](CCCNC(=N)N)C(=O)N[C@H](CCCCN)Cn2cc(CCc3ccccc3)nn2)nn1.Cl.Cl              2

In: Item: `CC(C)CCOc1ccc2ccccc2c1-c1c(OCC(=O)N[C@H](CCCNC(=N)N)C(=O)NCc2ccccc2)ccc2ccccc12.Cl` Test system: Streptococcus pneumoniae Read-out: MIC Value: ?
Out: 2

In: Please do the same for `CC(C)CCOc1ccccc1-c1ccccc1OCc1cn([C@H](CCCNC(=N)N)C(=O)NC2CC2)nn1.Cl` as well.
Out: 8

In: Please do the same for `CC(C)CCOc1ccccc1-c1ccccc1OCc1cn([C@H](CCCCN)C(=O)N[C@H](CCCNC(=N)N)Cn2cc(C3CCCCC3)nn2)nn1.Cl.Cl` as well.
Out: 32

In: Please do the same for `CCCN(CC1CC1)C(=O)[C@@H](CCCNC(=N)N)n1cc(COc2ccccc2-c2ccccc2OCCC(C)C)nn1.Cl` as well.
Out: 2

----------
Test system: Acinetobacter baumannii
Test: Growth inhibition of Acinetobacter baumannii ATCC 19606 incubated for 18 hrs without shaking by absorbance based monochromator plate reader analysis
Type: organism-based, ATCC 19606 = CIP 70.34 = JCM 6841
Details: in vitro
recordedMetric: MIC (µg/mL)
Number only, in µg/mL; omit the unit.

> print(dat)
                                querysmiles  unitsymbol  endpointvalue
1  CC(C)CCOc1ccccc1-c1ccccc1OCc1cn([C@H](CCCCN)C(=O)NC2CCCCC2)nn1.Cl       µg/mL             32
2  CC(C)CCOc1ccccc1-c1ccccc1OCc1cn([C@H](CCCNC(=N)N)C(=O)N[C@H](CCCCN)Cn2cc(C3CCCCC3)nn2)nn1.Cl.Cl       µg/mL             16

Pending compound:
In: Fill in the blank: the reported MIC of `CC(C)CCOc1ccccc1-c1ccccc1OCc1cn([C@H](CCCCN)C(=O)N[C@H](CCCNC(=N)N)Cn2cc(C3CCCCC3)nn2)nn1.Cl.Cl` is ____.
Out: 8

----------
Tested on: Enterococcus faecalis
Assay: Growth inhibition of Enterococcus faecalis ATCC 29212 incubated in MHB broth for 24 hrs
Type: organism-based
# MIC per entry
Number only, in µg/mL; omit the unit.

> print(dat)
                                querysmiles  endpointvalue
1  CC(C)CCOc1ccccc1-c1ccccc1OCc1cn([C@H](CCCNC(=N)N)C(=O)Nc2cccc(F)c2)nn1.Cl              8
2  CC(C)CCOc1ccccc1-c1ccccc1OCc1cn([C@H](CCCCN)C(=O)N[C@H](CCCNC(=N)N)Cn2cc(CC3CCCCC3)nn2)nn1.Cl.Cl              4
3  CC(C)CCOc1ccccc1-c1ccccc1OCc1cn([C@H](CCCNC(=N)N)C(=O)NCCc2ccccc2)nn1.Cl              4

Pending compound:
In: Fill in the blank: the reported MIC of `CC(C)CCOc1ccccc1-c1ccccc1OCc1cn([C@H](CCCNC(=N)N)C(=O)NCC2CCCCC2)nn1.Cl` is ____.
Out: 8

The origin of these recorded values is ChEMBL document CHEMBL4393656.
